# tested-system: NPC1-like intracellular cholesterol transporter 1 (Homo sapiens)
# assay-text: Inhibition of NPC1L1 in human Caco2 cells assessed as decrease in cholesterol uptake at 100 uM preincubated for 24 hrs followed by stigmosterol substrate addition measured after 24 hrs by HPLC method relative to control
# Type: cell-based
attribute-measured: inhibition

[[record]]
smiles_code = "CCN(CC)CCCOc1ccc(C2=C(c3ccc(F)cc3)C(=O)N(CCC(O)(c3ccccc3)c3ccccc3)C2=O)cc1"
tested_system = "NPC1-like intracellular cholesterol transporter 1 (Homo sapiens)"
value_reported = "69.6 to 72.6%"

[[record]]
smiles_code = "CCN(CC)CCOc1ccc(C2=C(c3ccc(F)cc3)C(=O)N(CCC(O)(c3ccccc3)c3ccccc3)C2=O)cc1"
tested_system = "NPC1-like intracellular cholesterol transporter 1 (Homo sapiens)"
value_reported = "69.6 to 72.6%"

[[record]]
smiles_code = "O=C1[C@H](CC[C@H](O)c2ccc(F)cc2)[C@@H](c2ccc(O)cc2)N1c1ccc(F)cc1"
tested_system = "NPC1-like intracellular cholesterol transporter 1 (Homo sapiens)"
value_reported = "51.3%"

[[record]]
smiles_code = "CCN(CC)CCCCOc1ccc(C2=C(c3ccc(F)cc3)C(=O)N(CCC(O)(c3ccccc3)c3ccccc3)C2=O)cc1"
tested_system = "NPC1-like intracellular cholesterol transporter 1 (Homo sapiens)"
value_reported = "69.6 to 72.6%"


Reference source: ChEMBL document CHEMBL4219107
